So I've got a bunch of compounds here, and I need their pIC50 values.
Tested on: STAT3 signaling
Experiment: STAT3 Luciferase reporter gene assay
Type: cell-based
Details: Homo sapiens; STAT3 reporter/HEK293 cell line, 1 h pretreatment, IL-6 induced for 16 h, luciferase activity; read-out: IC50
Give bare numbers, as −log10 of the molar value.

Cc1ccc(S(=O)(=O)N[C@@]2(C)C=C3C(=O)O[C@@H]4CCC(C2)[C@]34O)nc1 (some centres unmarked) [Example 12]    5.47
Cc1ccc(S(=O)(=O)N[C@@]2(C)C=C3C(=O)O[C@@H]4CCC(C2)[C@]34O)cn1 (some centres unmarked) [Example 13]    5.25
C[C@]1(NS(=O)(=O)c2ccc(C(F)(F)F)cc2)C=C2C(=O)O[C@@H]3CCC(C1)[C@]23O (some centres unmarked) [Example 5]    5.75

# batch size: 8; output pIC50 per entry
1. COc1ccc(CN2C(=O)C3=C[C@](C)(NS(=O)(=O)c4ccc(C(F)(F)F)cn4)CC4CC[C@@H]2[C@@]34O)cc1 (some centres unmarked) [Example 26]
2. Cc1ccc(S(=O)(=O)N[C@@]2(C)C=C3C(=O)O[C@@H]4CCC(C2)[C@]34O)s1 (some centres unmarked) [Example 14]
3. Cc1ccc(S(=O)(=O)N[C@@]2(C)C=C3C(=O)O[C@@H]4CCC(C2)[C@]34O)cc1F (some centres unmarked) [Example 16]
4. C[C@]1(NS(=O)(=O)c2ccc(C#N)cc2)C=C2C(=O)O[C@@H]3CCC(C1)[C@]23O (some centres unmarked) [Example 9]
5. COc1ccc(CN2C(=O)C3=C[C@](C)(NS(=O)(=O)c4ccc(C)cc4)CC4CC[C@@H]2[C@@]34O)cc1 (some centres unmarked) [Example 25]
6. C[C@]1(NS(=O)(=O)c2ccc(Br)cc2)C=C2C(=O)O[C@@H]3CCC(C1)[C@]23O (some centres unmarked) [Example 10]
7. C[C@]1(NS(=O)(=O)c2ccc(C(F)(F)F)cn2)C=C2C(=O)O[C@]3(C)CC[C@H](C1)[C@]23O [Example 28]
8. C[C@]1(NS(=O)(=O)c2ccc(C(F)(F)F)cn2)C=C2C(=O)O[C@@H]3CCC(C1)[C@]23O (some centres unmarked) [Example 20]

Output:
1: 5.06; 2: 5.17; 3: 5.35; 4: 5.03; 5: 5.43; 6: 5.49; 7: 6.04; 8: 5.90

// for each compound below, give its pIC50
1. CC(C)S(=O)(=O)N[C@@]1(C)C=C2C(=O)O[C@@H]3CC[C@H](C1)[C@]23O [Example 24]
2. C[C@]1(NS(=O)(=O)c2ccc(N)cc2)C=C2C(=O)O[C@@H]3CC[C@H](C1)[C@]23O [Example 21]
3. C[C@]1(NS(=O)(=O)c2ccc(C(F)(F)F)cc2Cl)C=C2C(=O)O[C@@H]3CCC(C1)[C@]23O (some centres unmarked) [Example 15]

Output:
[4.01, 5.44, 5.54]

---

Assay: In vivo pharmacokinetics, plasma exposure after single oral dose
Conditions: mouse, CD1 mice, single oral gavage 10 mg/kg
Description: Pharmacokinetic (PK) studies were performed in CD1 mice to establish plasma exposure following administration of single oral doses of galiellalactone (GL) and example 1. Sample analysis was by LC-MS/MS. Dose solutions were prepared at a drug concentration of 0.5 mg/mL in 5% DMSO in 50 mM citrate buffer (citric acid/sodium citrate pH 4.0) and administered as a 20 mL/kg oral gavage (10 mg/kg).
value kind: AUC(0-t) (ng·h/mL)
Give bare numbers, in ng·h/mL.

Task: Kindly indicate its recorded AUC(0-t). Item: Cc1ccc(S(=O)(=O)N[C@@]2(C)C=C3C(=O)O[C@@H]4CC[C@H](C2)[C@]34O)cc1 [Example 1]
Output: 141
